Collected apparent KD of MS2 coat protein values appear next to each entry.
# Test system: MS2 coat protein
# Measurement notes: apparent KD of MS2 coat protein; designed switch direction (-1 OFF switch, 1 ON switch): -1; higher = weaker reporter binding
# Test conditions: input ligand: none
// return numeric value only (unit: nM, not printed)

Use these answered entries as a reference point.
| Record sequence | apparent KD of MS2 coat protein [nM] |
| --- | --- |
| GUUUGAUUAGGAUAUACAUGAGGAUCACCCAUGUGUCCCAGUUUAGAAAUAGACAAAAGUAGAAGGGAUUAGAU [Starry 2] (Eterna round: R97, puzzle: Exclusion 3) | 45.8 |
| UUUAUUAAUUAAUAUAAUAAGAUCACAUGAGGAUCACCCAUGUAGGAUAUCAGCUCGUUUAGAGCUGAGAAGGACAUAAUUAUA [ExNG3/1-B2] (Eterna round: R96, puzzle: Exclusion NG 3) | 35.9 |
| UGAGUGCUGCGAGGAUAUACAUGAGGAUCACCCAUGUUUUCGUGUGAGGCUUUGCCUCACACGAAGUAGAAGGCGCAGUACUCU [JL ENG2 1.12] (Eterna round: R96, puzzle: Exclusion NG 2) | 12.3 |
| GCGCUGCGAGGAUAUACAUGAGGAUCACCCAUGUGUCGGCAGCCAUGGUAGUACAAAUGUAGAAGGCGCGUAAA [EX3 #51] (Eterna round: R97, puzzle: Exclusion 3) | 165 |

Now for another entry.
Query: Any idea what its apparent KD of MS2 coat protein is? The sequence is UUUUUUUGAGUAAGGAUAUGAUGCAGGAAACUGCGUCAGAAGGUACAUGAGGAUCACCCAUGUUAAUUUUGUUU [Explosion 14 - Jieux - Brourd's mod of Exclusion 4] (Eterna round: R97, puzzle: Brourd's mod of Exclusion 4)
Result: 20.3

----------
# Test system: MS2 coat protein
# Measurement notes: apparent KD of MS2 coat protein; designed switch direction (-1 OFF switch, 1 ON switch): -1; higher = weaker reporter binding
# Test conditions: input ligand: FMN 200 uM
Quantity measured: apparent KD of MS2 coat protein (nM)
// return numeric value only (unit: nM, not printed)

| Record sequence | Quantity measured | Unit annotation | Observed value |
| --- | --- | --- | --- |
| CGCUACGAAGUCAGGAUAUCAGAACAAGAUAAAUAUGAGAAGGGACAUGAGGAUCACCCAUGUUCGGUGGUAGC [BmEX4 A.14] (Eterna round: R97, puzzle: Brourd's mod of Exclusion 4) | apparent KD of MS2 coat protein | nM | 24.6 |
| GCAUCGUAAGGAUAUCAGCCGGUGGUAUACCGAAACAGGGUUGAGAAGGUACAUGAGGAUCACCCAUGUGAUUU [Eternabot (L2) Solution 37] (Eterna round: R97, puzzle: Exclusion 4) | apparent KD of MS2 coat protein | nM | 203 |
| UAUCUACAUGAGGAUCACCCAUGUGAGGAUAUCAAAACCAGAGCGGAUCUCUGGCCCAUGAGAAGGUACAUGGU [ElNandoxlusion 5 - Jieux - Exclusion 1] (Eterna round: R97, puzzle: Exclusion 1) | apparent KD of MS2 coat protein | nM | 59.2 |
| UUGUUGUGUGUAGGAUAUGCGUGUUAUUAUUAUGCAGAAGGACAUGAGGAUCACCCAUGUGUAUUAUUAUUAUAUAUUAUAUAU [Title] (Eterna round: R96, puzzle: Exclusion NG 1) | apparent KD of MS2 coat protein | nM | 23.8 |
| UACAUGAGGAUCACCCAUGUUUUGUCGUGUAUGGUACCCGUCUAGGAUAUCGUGUUAUUGGACCACGAGAAGGAGAGUAUCAAU [Excl-NG3-LRO02] (Eterna round: R96, puzzle: Exclusion NG 3) | apparent KD of MS2 coat protein | nM | 42.6 |
| AAAUCUGAGAAGGAUAUGGUACAGGAAAUGGUGCCAGAAGGUUUCACAUGAGGAUCACCCAUGUCGAAUAGUGA [EX6 #65] (Eterna round: R97, puzzle: Exclusion 6) | apparent KD of MS2 coat protein | nM | 29.6 |

Query: Any idea what its apparent KD of MS2 coat protein is? The sequence is GUAACAUGCUGGUGAUCAUACAUGAGGAUCACCCAUGUAACAAGCUUUUUGCUCGUCUUAUAAGAUUACUAGUAUGU [Stov1/10-A3] (Eterna round: R97, puzzle: Sensor, turn-off variant 1)
Result: 22

Query: Any idea what its apparent KD of MS2 coat protein is? The sequence is AAUAACAAUGUGAGGAUAUCUAGAGCUUCGGCUCUAGAGAAGGCACAUGAGGAUCACCCAUGUCUCAAUAACAA [BmEx4/2-E6] (Eterna round: R97, puzzle: Brourd's mod of Exclusion 4)
Result: 339

Query: Any idea what its apparent KD of MS2 coat protein is? The sequence is UUUUACAUGCUGAGAUCCUACAUGAGGAUCACCCAUGUGGUCCGGAAAAUUUUGUCACCGGAUUUUGCUCGUCUUGU [salish99_S_TOV1_R5_102] (Eterna round: R97, puzzle: Sensor, turn-off variant 1)
Result: 69.5

----------
# System: MS2 coat protein
# Measurement notes: apparent KD of MS2 coat protein; higher = weaker reporter binding
# Test conditions: Eterna round: R107; input ligand: theophylline 20 uM
Quantity measured: apparent KD of MS2 coat protein

Use these answered entries as a reference point.
| Record sequence | apparent KD of MS2 coat protein |
| --- | --- |
| ACAUUUAACUGAAGGAGCGUGAUAUACAUGAGGAUCACCCAUGUGUCUUACAUGAAUAAUUCACAGGUAGGUCGCAGACUAAUGA [JR_ExcArginiB_Sub009] | 33.7 nM |
| GAUUAAACAUGAGGAUCACCCAUGUAUAUACGAGGACCGGUACGGCCGCCACUCGUAAACGAGUAUCCUCGAAUAAACAUGAUAA [AK 2.1 SS Trypt (A)] | 113 nM |

Query: Any idea what its apparent KD of MS2 coat protein is? The sequence is CCUCGGGACCGAAGGAGCGAGAUAACAACAUUGGGUCUCAACACAUGAGGAUCACCCAUGUCUCAGGUAGGUCGCGGUACCAUGG [Exclusion Arginine B GF22]
Result: 275 nM

----------
# Tested on: MS2 coat protein
# Measurement notes: apparent KD of MS2 coat protein; designed switch direction (-1 OFF switch, 1 ON switch): 1; higher = weaker reporter binding
# Test conditions: Eterna round: R95; input ligand: microRNA oligo, concentration not stated
Parameter threshold = 50 nM. Response is T when apparent KD of MS2 coat protein meets or exceeds it, else F.

| Record sequence | Assigned class |
| --- | --- |
| GAGAGAGGAAGCGAGGAUAUCGUGUUGAGUACAUGAGGAUCACCCAUGUUGUAGGUAGAGGUAGGCGAGAAGGCGCAGGAGAGGG [JR_SS2_Sub099] (puzzle: Same State 2) | F |
| AUGCAGCCACCACAGGAUAUACGUGGAUCGACAUGAGGAUCACCCAUGUAUAUCCUAAUAAUUGCGUAGAAGGGUGGUCGGCUGG [Anatxeage] (puzzle: Same State 2) | T |
| UGUCCAGCCUGAGCUGGACAAAAGCAUGUACAUGAGGAUCACCCAUGUUCAUGUACAAGCUUUUUGCUCGUCUUAGG [salish99_208a_r3_066] (puzzle: Sensor for hsa-mir-208a) | F |

Then there is this sequence:
Query: Decide: apparent KD of MS2 coat protein of AUAAGUUCGAUGCUCGUCUCUCCGUACUAACAUGAGGAUCACCCAUGUGGUCGGGAAGUAGCCCGACCAGUAUGGCC [Vearebe] (puzzle: Sensor for hsa-mir-208a) >= 50 nM?
Result: T

----------
# Tested on: MS2 coat protein
# Measurement notes: apparent KD of MS2 coat protein; designed switch direction (-1 OFF switch, 1 ON switch): -1; higher = weaker reporter binding
# Test conditions: input ligand: none
Quantity measured: apparent KD of MS2 coat protein (nM)
// return numeric value only (unit: nM, not printed)

Use these answered entries as a reference point.
| Record sequence | Unit annotation | apparent KD of MS2 coat protein |
| --- | --- | --- |
| CUAGGGCACAAUUAAGCGCCCUAACAUGAGGAUCACCCAUGUCAGGAUAUGUAGGCAAAGACCCUACAGAAGGGACAUGUCCUA [Artileza] (Eterna round: R96, puzzle: Exclusion NG 3) | nM | 69.2 |
| UUUACAAGCUUUAGAUCCCACAUGAGGAUCACCCAUGUUGCUGCCGGUGACGGUAGCAUAACUAAUGCUCGUCUUAU [JL TOV1 3.62] (Eterna round: R97, puzzle: Sensor, turn-off variant 1) | nM | 235 |

Query: Any idea what its apparent KD of MS2 coat protein is? The sequence is CGAUAAAAGUGAGGAUAUGAGGAGAGAGAGAGAUCAGAAGGCACACAUGAGGAUCACCCAUGUGAGUUCUCGAAAUUAAAUAUU [Prohibition 49 - Jieux - Exclusion NG 1] (Eterna round: R96, puzzle: Exclusion NG 1)
Result: 18

Query: Any idea what its apparent KD of MS2 coat protein is? The sequence is UGUGCAACAGGAUAUAUGUGGCGUCCGUGAGGACGAAGGUUACAUGAGGAUCACCCAUGUAGAAGGGUUGUACU [Mat - Exclusion 2 - JL Mod - D24] (Eterna round: R97, puzzle: Exclusion 2)
Result: 68.5

Query: Any idea what its apparent KD of MS2 coat protein is? The sequence is UGUUGUCGCGCAGGAUAUGGCCAACAGGCCCUAGGAUAUCCGAAAGGAGAAGGAGCGCCAACAGGCGAGAAGGGCGGGACAACU [pwkr exNG2 2xF7 2xFMN.16] (Eterna round: R96, puzzle: Exclusion NG 2)
Result: 29.7

Query: Any idea what its apparent KD of MS2 coat protein is? The sequence is GUAACAUGCUGGUGAUCAUACAUGAGGAUCACCCAUGUAACAAGCUUUUUGCUCGUCUUAUAAUUUAAGAUCACCAG [Stov1/7-A3] (Eterna round: R97, puzzle: Sensor, turn-off variant 1)
Result: 16.2

Query: Any idea what its apparent KD of MS2 coat protein is? The sequence is CCCACGUGAGGAUAUUCAACGGUAAGCGAUCUAUGCACCUUGAAGAAGGCACAUGAGGAUCACCCAUGUCCUAA [Eternabot (L1) Solution 44] (Eterna round: R97, puzzle: Exclusion 4)
Result: 22.2

Query: Any idea what its apparent KD of MS2 coat protein is? The sequence is UGACAGCUAGGAUAUGGGCGUGCUUACAUGAGGAUCACCCAUGUGGUAUCUGAGUAGCACCCAGAAGGAGCCCGCG [Eternabot (L2) Solution 87] (Eterna round: R97, puzzle: Exclusion 5)
Result: 656

Query: Any idea what its apparent KD of MS2 coat protein is? The sequence is UUAAAUCAUGUAGGAUAUGCUUUGCGAAGCGAGGCAGAAGGACAUGAGGAUCACCCAUGUGCUAGCGUCCGAGAACGGAUGCAA [Mat - Exclusion NG 1 - Mod of JL - D63] (Eterna round: R96, puzzle: Exclusion NG 1)
Result: 79.6

The values you see were collected from the supplement of paper PMC9170038.
